Where these numbers come from: patent US20220153732A1

# System: PD1-ss+10aa/Gaussia Luciferase
# experimental-details: Dox-Induced PD1-ss-Gluc Assay
# Format: cell-based
# conditions: 24 hr doxycycline induction, 293FRT/TO cells, Gaussia luciferase signal; read-out: 24 hr Dox Inducible PD1ssGluc 293FRT/TO: Mean IC50
The label yes (1) is reserved for IC50 strictly under 700 nM; no (0) covers values equal to or above it.

In: Criterion: IC50 strictly below 700 nM. Is it met by CCCc1cnc(NC(=O)c2cccn2Cc2ccncc2)s1 ?
Out: no (0)

In: Criterion: IC50 strictly below 700 nM. Is it met by CC(C)(OCC1CCCCO1)c1csc(NC(=O)c2cccn2Cc2ccncc2)n1 (stereo not drawn) ?
Out: no (0)

In: Criterion: IC50 strictly below 700 nM. Is it met by CC(C)OC(C)(C)c1csc(NC(=O)c2c(Cl)ccn2Cc2ccncc2)n1 ?
Out: no (0)

In: Criterion: IC50 strictly below 700 nM. Is it met by O=C(Nc1nc(C2CC(c3ccccc3)C2)cs1)c1cccn1CCCc1ccncc1 (stereo not drawn) ?
Out: yes (1)

In: Criterion: IC50 strictly below 700 nM. Is it met by CC(C)OC(C)(C)c1csc(NC(=O)c2cc(C(N)=O)cn2Cc2ccncc2)n1 ?
Out: no (0)

In: Criterion: IC50 strictly below 700 nM. Is it met by CC(C)OC(C)(C)c1csc(NC(=O)c2ccn(Cc3ccncc3)n2)n1 ?
Out: no (0)

In: Criterion: IC50 strictly below 700 nM. Is it met by CC(C)OC(C)(C)c1csc(NC(=O)c2ccc(CO)n2Cc2ccncc2)n1 ?
Out: no (0)

In: Criterion: IC50 strictly below 700 nM. Is it met by COc1ccccc1C#Cc1csc(NC(=O)c2cccn2Cc2ccncc2)n1 ?
Out: yes (1)

In: Criterion: IC50 strictly below 700 nM. Is it met by CC(C)Oc1ccc(/C=C/c2csc(NC(=O)c3cccn3Cc3ccncc3)n2)cc1 ?
Out: yes (1)

In: Criterion: IC50 strictly below 700 nM. Is it met by CC(C)OC(C)(C)c1nc(NC(=O)c2cccn2Cc2ccncc2)sc1Br ?
Out: yes (1)

In: Criterion: IC50 strictly below 700 nM. Is it met by CC(C)OC(C)(C)c1csc(NC(=O)c2cccn2Cc2ccncc2Cl)n1 ?
Out: yes (1)

In: Criterion: IC50 strictly below 700 nM. Is it met by CC(C)OC(C)(C)c1csc(NC(=O)c2cccn2CC2CCOCC2)n1 ?
Out: no (0)

In: Criterion: IC50 strictly below 700 nM. Is it met by O=C(Nc1nc(C#Cc2ccccc2Cl)cs1)c1cccn1Cc1ccncc1 ?
Out: yes (1)

In: Criterion: IC50 strictly below 700 nM. Is it met by O=C(Nc1nc([C@H]2CCCN2c2ccccc2)cs1)c1cccn1Cc1ccncc1 ?
Out: yes (1)

In: Criterion: IC50 strictly below 700 nM. Is it met by O=C(Nc1nc2cccnc2s1)c1cccn1Cc1ccncc1 ?
Out: no (0)

In: Criterion: IC50 strictly below 700 nM. Is it met by CC(C)OC(C)(C)c1csc(NC(=O)C2CCCC(=O)N2Cc2ccncc2)n1 (stereo not drawn) ?
Out: no (0)

In: Criterion: IC50 strictly below 700 nM. Is it met by O=C(Nc1nc([C@@H]2CCCN2c2ccccc2)cs1)c1cccn1Cc1ccncc1 ?
Out: yes (1)
